Numbers sourced from ChEMBL document CHEMBL2375286.

# ASSAY_OVERVIEW: Thermodynamic solubility of the compound in phosphate buffer at pH 7.2 to 7.4 after 48 hrs by UV-HPLC analysis
# Assay type: physicochemical
# STUDY_CONDITIONS: read-out: Therm_solubility

TEST_SMILES: CCCOc1ccc(C[C@@H](Cc2ccccc2)C(=O)O)cc1CNC(=O)c1ccc(-c2cncnc2)cc1
RESULT_MODIFIER: =
solubility thermodynamic at 48 h [µg/mL]: 190
--
TEST_SMILES: CCCOc1ccc(C[C@@H](Cc2ccccc2)C(=O)O)cc1CNC(=O)c1ccc(-c2ccccc2F)cc1
RESULT_MODIFIER: <
solubility thermodynamic at 48 h [µg/mL]: 1
--
TEST_SMILES: CCCOc1ccc(C[C@H](Cc2ccccc2)C(=O)O)cc1CNC(=O)c1ccc(C23CC4CC(CC(C4)C2)C3)cc1
RESULT_MODIFIER: <
solubility thermodynamic at 48 h [µg/mL]: 1
--
TEST_SMILES: CCCOc1ccc(C[C@@H](Cc2ccccc2)C(=O)O)cc1CNC(=O)c1ccc(-c2ncccn2)cc1
RESULT_MODIFIER: =
solubility thermodynamic at 48 h [µg/mL]: 301
